All figures here come from ChEMBL document CHEMBL3885881.

Assignment: determine reported ABSOLUTE SEGMENTED NEUTROPHIL for the given compounds.
# Species on record: Rattus norvegicus
# protocol notes: DrugMatrix - Regimen: Daily Repeat
# Type: toxicity, organism-based, Sprague-Dawley
# Design: regimen Daily Repeat, gender Male, age 6-8 weeks
# assay conditions: in vivo, po, 0 mg/kg, 72 h, tissue Blood, route oral GAVAGE, dose level Control, time 3 day, vehicle 100 % WATER
Numeric answer only, unit CELLS/uL assumed.

In: Which value of ABSOLUTE SEGMENTED NEUTROPHIL has been reported for COc1cc2nc(N3CCN(C(=O)C4COc5ccccc5O4)CC3)nc(N)c2cc1OC (stereo not given) in the records?
Out: 1090.17

In: Recorded ABSOLUTE SEGMENTED NEUTROPHIL of C[C@](N)(Cc1ccc(O)c(O)c1)C(=O)O , please.
Out: 1242.33

In: Reported ABSOLUTE SEGMENTED NEUTROPHIL for CC(O)CO (stereo not given) : what is it?
Out: 1021.17

In: Quick one: ABSOLUTE SEGMENTED NEUTROPHIL of c1ccc([C@H]2CN3CCSC3=N2)cc1 ?
Out: 1292.17

In: Quick check: ABSOLUTE SEGMENTED NEUTROPHIL of N[C@@H](Cc1ccc(O)c(O)c1)C(=O)O ?
Out: 1090.17

In: Which ABSOLUTE SEGMENTED NEUTROPHIL reading was recorded for the compound C[C@H](CS)C(=O)N1CCC[C@H]1C(=O)O ?
Out: 1008.5

In: # lookup: ABSOLUTE SEGMENTED NEUTROPHIL of C[C@H]1c2cccc(O)c2C(=O)C2=C(O)[C@]3(O)C(=O)C(C(N)=O)=C(O)[C@@H](N(C)C)[C@@H]3[C@@H](O)[C@@H]21.O
Out: 1090.17

In: // query ABSOLUTE SEGMENTED NEUTROPHIL value for entry COCCc1ccc(OCC(O)CNC(C)C)cc1 (stereo not given)
Out: 1139.67

In: Reported ABSOLUTE SEGMENTED NEUTROPHIL, compound CNNCc1ccc(C(=O)NC(C)C)cc1 : ____
Out: 617.67

In: Requested field: ABSOLUTE SEGMENTED NEUTROPHIL. Item: NCCCCCC(=O)O
Out: 1021.17

----------
# Organism: Rattus norvegicus
# protocol notes: DrugMatrix - Regimen: Daily Repeat
# Assay type: toxicity, organism-based, Sprague-Dawley
# Parameters: regimen Daily Repeat, gender Male, age 6-8 weeks
# assay conditions: in vivo, po, 0 mg/kg, 120 h, tissue Plasma, route oral GAVAGE, dose level Control, time 5 day, vehicle 100 % WATER
Assignment: determine reported CHLORIDE for the given compounds.
Kindly answer with a numeric value in MEQ/L, unit omitted.

In: Entry CNNCc1ccc(C(=O)NC(C)C)cc1 : reported CHLORIDE = ?
Out: 98.33

In: Name the reported CHLORIDE value associated with the compound Cn1cc[nH]c1=S
Out: 100.83

In: # input compound: CN(C)CCCN1c2ccccc2Sc2ccc(Cl)cc21 ; wanted: its CHLORIDE
Out: 105.33

In: Given the entry C=CCC1(C(C)CCC)C(=O)NC(=O)NC1=O (stereo unspecified) , report its measured CHLORIDE.
Out: 99.75

In: Please look up its CHLORIDE: Clc1cccc(Cl)c1N=C1NCCN1
Out: 99.5

In: Endpoint output: CHLORIDE of C[C@](N)(Cc1ccc(O)c(O)c1)C(=O)O . Value?
Out: 103.83

In: # CHLORIDE lookup, item c1ccc([C@H]2CN3CCSC3=N2)cc1
Out: 98.33

In: Fill blank: measured CHLORIDE of the compound C[C@H](CS)C(=O)N1CCC[C@H]1C(=O)O is ____.
Out: 101.83

In: Would you mind telling me what CHLORIDE value was observed for NCCCCCC(=O)O ?
Out: 100.33

In: # input compound: N[C@@H](Cc1ccc(O)c(O)c1)C(=O)O ; wanted: its CHLORIDE
Out: 101.5

In: Value lookup for CHLORIDE; key = COc1cc2nc(N3CCN(C(=O)C4COc5ccccc5O4)CC3)nc(N)c2cc1OC (stereo unspecified)
Out: 101.5
